Reported pIC50 values for a set of molecules
Molecular target: activated ERK2 (Homo sapiens (Human), UniProt P28482)
Sequence (P28482 whole entry): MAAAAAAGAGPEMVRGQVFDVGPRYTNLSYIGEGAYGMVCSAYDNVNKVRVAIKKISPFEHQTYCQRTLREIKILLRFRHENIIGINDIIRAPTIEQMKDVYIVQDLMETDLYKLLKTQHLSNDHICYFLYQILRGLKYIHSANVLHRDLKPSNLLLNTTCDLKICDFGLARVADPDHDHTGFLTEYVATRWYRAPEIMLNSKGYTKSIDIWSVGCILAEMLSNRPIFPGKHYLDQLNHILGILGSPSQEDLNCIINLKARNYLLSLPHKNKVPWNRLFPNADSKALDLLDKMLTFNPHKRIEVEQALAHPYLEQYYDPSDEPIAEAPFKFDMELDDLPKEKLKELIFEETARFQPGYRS
Test: Activated ERK2 (20 pM) Kinase Assay (AlphaScreen, ERKtide phosphorylation)
Assay type: biochemical
Conditions: 0.02 nM ERK2, 400 nM ERKtide peptide, 35 μM ATP, 30 min preincubation
pIC50: −log10 of the molar value.

>  <smilesCode>
CN1CC[C@H](c2cnc(N)c(-c3ccc(C(=O)N[C@H](CO)c4cccc(Cl)c4)c(F)c3)c2)CC1=O

>  <pIC50>
8.92

$$$$
>  <smilesCode>
Cc1c(-c2cnc(N)c(-c3ccc(C(=O)N[C@H](CO)c4cccc(CF)c4)c(F)c3)c2)cnn1C(F)F

>  <pIC50>
10.68

$$$$
>  <smilesCode>
CO[C@H]1CC[C@H](c2cnc(N)c(-c3ccc(C(=O)N[C@H](CO)c4cc(F)cc(Br)c4)c(F)c3)n2)C[C@@H]1O

>  <pIC50>
9.87

$$$$
>  <smilesCode>
Nc1ncc([C@H]2CC[C@H](O)CC2)nc1-c1ccc(C(=O)N[C@H](CO)c2cccc(C(F)(F)F)c2)c(F)c1

>  <pIC50>
6.73

$$$$

====

Biological target: activated ERK2 (Homo sapiens (Human))
Test: Activated ERK2 kinase assay, ERK2 New conditions (AlphaScreen, ERKtide phosphorylation)
Format: biochemical
Conditions: 0.25 nM ERK2, 200 nM ERKtide peptide, 35 μM ATP, 30 min preincubation
log10 IC50 by entry:
readoutLabel: log10 IC50 (log10 of the value in nM)

>  <compound>
COC1CCCC(c2cnc(N)c(-c3ccc(C(=O)N[C@H](CO)c4cccc(Cl)c4)c(F)c3)n2)C1 (mixture of isomers) [Example 123]

>  <log10 IC50>
-0.23

$$$$
>  <compound>
Nc1ncc([C@H]2C[C@H]3COC(=O)N3C2)cc1-c1ccc(C(=O)N[C@H](CO)c2cccc(Cl)c2)c(F)c1 [Example 9]

>  <log10 IC50>
0.55

$$$$
>  <compound>
Cc1cccc([C@@H](CO)NC(=O)c2ccc(-c3cc(-c4cnnn4C)cnc3N)cc2F)c1 [Example 306]

>  <log10 IC50>
-0.42

$$$$
>  <compound>
Nc1ncc(C2CCC(=O)NC2)nc1-c1ccc(C(=O)NCc2ccccc2)c(F)c1 (racemic) [Example 117]

>  <log10 IC50>
0.68

$$$$
>  <compound>
Nc1ncc(-c2cnoc2)cc1-c1ccc(C(=O)N[C@H](CO)c2ccccc2)c(F)c1 [Example 164]

>  <log10 IC50>
0.15

$$$$
>  <compound>
C[C@@H](NC(=O)c1ccc(-c2cc(-c3cnnn3C)cnc2N)cc1F)c1cccc(Cl)c1 [Example 303]

>  <log10 IC50>
-0.66

$$$$
>  <compound>
Cn1nncc1-c1cnc(N)c(-c2ccc(C(=O)N[C@H](CO)c3cccc(Cl)c3)c(F)c2)c1 [Example 300]

>  <log10 IC50>
-0.64

$$$$
>  <compound>
C[C@@H](NC(=O)c1ccc(-c2cc(C3CC3)cnc2N)cc1F)c1cc(F)cc(S(C)(=O)=O)c1 [Example 288]

>  <log10 IC50>
0.31

$$$$
>  <compound>
COC1CCC(c2cnc(N)c(-c3ccc(C(=O)NCc4ccccc4)c(F)c3)n2)C1 (centres unmarked) [Example 104]

>  <log10 IC50>
2.28

$$$$
>  <compound>
C[C@@H]1C[C@H](c2cnc(N)c(-c3ccc(C(=O)NCc4cccc(S(C)(=O)=O)c4)cc3)n2)CCO1 [Example 100]

>  <log10 IC50>
0.89

$$$$
>  <compound>
CC(=O)N1CCC(c2cnc(N)c(-c3ccc(C(=O)N[C@H](CO)c4ccccc4)c(F)c3)n2)CC1 [Example 60]

>  <log10 IC50>
1.09

$$$$
>  <compound>
CN1CC(c2cnc(N)c(-c3ccc(C(=O)N[C@H](CO)c4cccc(Cl)c4)c(F)c3)c2)CCC1=O (some centres unmarked) [Example 35]

>  <log10 IC50>
0.04

$$$$
>  <compound>
Cn1cc(-c2cnc(N)c(-c3ccc(C(=O)NCc4nccs4)c(F)c3)c2)cn1 [Example 238]

>  <log10 IC50>
2.55

$$$$
>  <compound>
Cn1cc(-c2cnc(N)c(-c3ccc(C(=O)N[C@H](CO)c4cc(F)cc(Cl)c4)c(F)c3)c2)cn1 [Example 289]

>  <log10 IC50>
-0.72

$$$$
>  <compound>
CN1C[C@@H](c2cnc(N)c(-c3ccc(C(=O)N[C@H](CO)c4cccc(Cl)c4)c(F)c3)c2)CC1=O [Example 43]

>  <log10 IC50>
0.73

$$$$
>  <compound>
CN1CC(c2cnc(N)c(-c3ccc(C(=O)N[C@H](CO)c4ccccc4)c(F)c3)c2)CC1=O (some centres unmarked) [Example 41]

>  <log10 IC50>
1.71

$$$$
>  <compound>
Cc1nn(C)cc1-c1cnc(N)c(-c2ccc(C(=O)N[C@H](CO)c3cccc(Cl)c3)c(F)c2)n1 [Example 127]

>  <log10 IC50>
-0.61

$$$$
>  <compound>
CS(=O)(=O)c1cccc(CNC(=O)c2ccc(-c3nc(C4CCOCC4)cnc3N)cc2)c1 [Example 323]

>  <log10 IC50>
0.52

$$$$
>  <compound>
Nc1ncc([C@@H]2CN[C@H](C(=O)O)C2)cc1-c1ccc(C(=O)N[C@H](CO)c2cccc(Cl)c2)c(F)c1 [Example 222]

>  <log10 IC50>
1.39

$$$$
>  <compound>
Nc1ncc([C@H]2CCC[C@@H](O)C2)nc1-c1ccc(C(=O)NCc2ccccc2)c(F)c1 (racemic) [Example 12]

>  <log10 IC50>
1.60

$$$$
>  <compound>
Nc1ncc(C2CC2)nc1-c1ccc(C(=O)N[C@H](CO)c2ccccc2)c(F)c1 [Example 251]

>  <log10 IC50>
0.85

$$$$
>  <compound>
COC(=O)CCc1cnc(N)c(-c2ccc(C(=O)NCc3ccccc3)c(F)c2)n1 [Example 19]

>  <log10 IC50>
3.78

$$$$
>  <compound>
CS(=O)(=O)N1CCC(c2cnc(N)c(-c3ccc(C(=O)N[C@H](CO)c4ccccc4)c(F)c3)c2)C1 (some centres unmarked) [Example 63]

>  <log10 IC50>
1.37

$$$$
>  <compound>
Nc1ncc([C@H]2C[C@H]3COCC(=O)N3C2)cc1-c1ccc(C(=O)N[C@H](CO)c2cccc(Cl)c2)c(F)c1 [Example 8]

>  <log10 IC50>
0.61

$$$$
>  <compound>
CO[C@@H]1CCC[C@H](c2cnc(N)c(-c3ccc(C(=O)NCc4ccccc4)c(F)c3)n2)C1 (racemic) [Example 124]

>  <log10 IC50>
1.80

$$$$
>  <compound>
C[C@@H](NC(=O)c1ccc(-c2nc([C@H]3CC[C@H](O)CC3)cnc2N)cc1F)c1cc(F)cc(S(C)(=O)=O)c1 [Example 419]

>  <log10 IC50>
-0.07

$$$$
>  <compound>
CC(C)n1cc(-c2cnc(N)c(-c3ccc(C(=O)N[C@H](CO)c4cccc(F)c4)c(F)c3)c2)cn1 [Example 292]

>  <log10 IC50>
0.45

$$$$
>  <compound>
CS(=O)(=O)c1cccc(CNC(=O)c2ccc(-c3nc(C4CC4)cnc3N)cc2F)c1 [Example 99]

>  <log10 IC50>
1.08

$$$$
>  <compound>
Nc1ncc(C2=CCOCC2)nc1-c1ccc(C(=O)NCc2ccccc2)c(F)c1 [Example 427]

>  <log10 IC50>
1.22

$$$$
>  <compound>
C[C@H]1C[C@@H](c2cnc(N)c(-c3ccc(C(=O)NCc4cccc(S(C)(=O)=O)c4)cc3)n2)CCO1 [Example 101]

>  <log10 IC50>
1.89

$$$$
>  <compound>
Cc1cnccc1-c1cnc(N)c(-c2ccc(C(=O)NCc3cccc(S(C)(=O)=O)c3)cc2)n1 [Example 139]

>  <log10 IC50>
0.90

$$$$
>  <compound>
Cn1cc(-c2cnc(N)c(-c3ccc(C(=O)N[C@H](CO)c4cccc(F)c4)c(F)c3)n2)cn1 [Example 280]

>  <log10 IC50>
0.22

$$$$

====

Target: activated ERK2 (Homo sapiens (Human))
Assay: Activated ERK2 kinase assay, ERK2 New conditions (AlphaScreen, ERKtide phosphorylation)
Assay type: biochemical
Conditions: 0.25 nM ERK2, 200 nM ERKtide peptide, 35 μM ATP, 30 min preincubation
We label by threshold. Values of IC50 strictly beneath 2 nM are true (1). Values of 2 nM and up are false (0).

>  <compound>
Nc1ncc(C2CCNC(=O)C2)cc1-c1ccc(C(=O)N[C@H](CO)c2cccc(Cl)c2)c(F)c1 (mixture of isomers)

>  <groupLabel>
true (1)

$$$$
>  <compound>
Cc1ncc(-c2cnc(N)c(-c3ccc(C(=O)N[C@H](CO)c4ccccc4)c(F)c3)c2)n1C

>  <groupLabel>
false (0)

$$$$
>  <compound>
CS(=O)(=O)[C@H]1CC[C@@H](c2cnc(N)c(-c3ccc(C(=O)NCc4ccccc4)c(F)c3)n2)CC1

>  <groupLabel>
false (0)

$$$$
>  <compound>
Nc1ncc(C2CCOCC2)nc1-c1ccc(C(=O)N[C@H]2CCCN(Cc3ccccc3F)C2)c(F)c1

>  <groupLabel>
false (0)

$$$$
>  <compound>
COCCc1cnc(N)c(-c2ccc(C(=O)N[C@H](CO)c3ccccc3)c(F)c2)n1

>  <groupLabel>
false (0)

$$$$
>  <compound>
CCn1cc(-c2cnc(N)c(-c3ccc(C(=O)N[C@H](CO)c4cccc(Cl)c4)c(F)c3)c2)cn1

>  <groupLabel>
true (1)

$$$$
